Reference source: patent US20240287048A1

System: ESR1 transcription in MVLN cells
Experiment: Repression of ESR1 transcription, MVLN luciferase reporter assay
Format: cell-based
Conditions: Homo sapiens, luciferase signal after 24 h, read-out: MVLN reporter assay, IC50[M] (arithmetic mean)
Experimental: KAT6A controls transcription of the ESR1 gene in breast cancer cells. Compound treatment that interferes with this mechanism was quantified using MVLN cells. […] The repressive effect on ERα transcription activity of a test chemical is directly related to the luciferase measured in the lysate of treated MVLN cells. Each sample was prepared as duplicate and rim wells were excluded. […] Then fluorescence was measured with Victor X3 (Perkin Elmer) at 530 nm/590 nm.
Can you tell me IC50 for the items I'm about to list?
One number for each entry, in M.

Examples from the recorded data:
O=C(NS(=O)(=O)c1ccccc1-c1ccccc1)c1cc2ccc(C3CC3)c(F)c2o1
6.75e-06
CCOc1ccccc1S(=O)(=O)NC(=O)c1cc2c(OC)cc(C)cc2o1
5.08e-06
CCOc1ccccc1S(=O)(=O)NC(=O)c1cc2c(N(C)C)cc(C3CC3)cc2o1
1.68e-05

Moving on to the next compound.
Problem: Query: IC50; subject: CCOc1ccccc1S(=O)(=O)NC(=O)c1cc2c(F)cc(C3CC3)cc2o1
Solution: 5.42e-07
